# subject of test: full length Keap1 protein / full length NRF2 protein (Homo sapiens, UniProt Q14145)
# Construct: full length NRF2 protein and full length Keap1 protein (Keap1 exists a dimer) are used; His
# Sequence (Q14145 whole entry): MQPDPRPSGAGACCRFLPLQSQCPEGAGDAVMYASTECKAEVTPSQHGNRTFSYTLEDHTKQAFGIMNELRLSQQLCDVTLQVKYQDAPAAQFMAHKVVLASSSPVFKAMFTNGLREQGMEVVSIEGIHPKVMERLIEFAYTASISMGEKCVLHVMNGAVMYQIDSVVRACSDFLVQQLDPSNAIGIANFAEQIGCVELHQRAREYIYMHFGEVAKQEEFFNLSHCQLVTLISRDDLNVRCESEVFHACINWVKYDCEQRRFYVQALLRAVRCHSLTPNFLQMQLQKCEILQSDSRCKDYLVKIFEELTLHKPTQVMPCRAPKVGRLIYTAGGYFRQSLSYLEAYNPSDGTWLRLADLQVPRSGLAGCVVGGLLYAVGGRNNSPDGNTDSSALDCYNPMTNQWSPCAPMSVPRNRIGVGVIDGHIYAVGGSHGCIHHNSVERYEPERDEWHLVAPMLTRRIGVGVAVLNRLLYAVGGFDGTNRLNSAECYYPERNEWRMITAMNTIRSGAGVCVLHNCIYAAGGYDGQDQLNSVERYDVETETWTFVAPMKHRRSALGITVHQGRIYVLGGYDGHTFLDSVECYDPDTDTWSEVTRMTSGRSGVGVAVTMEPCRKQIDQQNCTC
# test description: NRF2-Keap1 TR-FRET Assay
# Assay type: binding
# condition description: 25 nM Keap1-FlagHis and 50 nM biotin-NRF2 added
# Text: In the NRF2-Keap1 TR-FRET (time-resolved fluorescence resonance energy transfer) assay, full length NRF2 protein and full length Keap1 protein (Keap1 exists a dimer) are used. The assay detects the ability of compound to displace the binding of FlagHis-tagged Keap1 with biotinylated, Avi-tagged NRF2 protein. […]
Overview of recorded IC50 for various compounds

                                   compound  observed_measurement
0  CCOC(c1cccc(-c2cccc(-n3ncc(C(=O)O)c3C3CC3c3cn(C)nn3)c2)c1)C(C)C (centres unmarked)        100 to 1000 nM
1  Cn1cc(C2CC2c2c(C(=O)O)cnn2-c2cccc(-c3cccc(OC4CCCCC4)c3)c2)nn1 (centres unmarked)        100 to 1000 nM
2  Cn1cnc(C2CC2c2c(C(=O)O)cnn2-c2cccc(-c3cccc(OCC4CCCCC4)c3)c2)c1 (centres unmarked)    10000 to 100000 nM
3  CC(C)Oc1cccc(-c2cccc(-n3ncc(C(=O)O)c3C3CC3c3cn(C)nn3)c2)c1 (centres unmarked)        100 to 1000 nM
4  CC1CC(C)CN(C(=O)c2cccc(-c3cccc(-n4ncc(C(=O)O)c4C4CC4)c3)c2F)C1 (centres unmarked)        100 to 1000 nM

Consider now this further compound.
Incoming: Requested read-out IC50, target or system full length Keap1 protein / full length NRF2 protein (Homo sapiens, UniProt Q14145), entry CCCC1(C)CCc2cnn(-c3cccc(-c4cccc(-n5ncc(C(=O)O)c5C5CC5)c4)c3)c21 (centres unmarked)
Outgoing: 100 to 1000 nM

* * *

# subject of test: full length Keap1 protein / full length NRF2 protein (Homo sapiens, UniProt Q14145)
# Construct: full length NRF2 protein and full length Keap1 protein (Keap1 exists a dimer) are used; His
# test description: NRF2-Keap1 TR-FRET Low Protein Assay
# Assay type: binding
# condition description: 1.25 nM Keap1 FlagHis and 2.5 nM biotin-NRF2 added
Overview of recorded IC50 for various molecules

Reference set, count: 5
In [3]: df
Out[3]:
                                   molecule  parameter  observed_measurement
0  CCC[C@@H]1CCCCN1C(=O)c1cccc(-c2cccc(-n3ncc(C(=O)O)c3[C@@H]3C[C@H]3c3cn(C)nn3)c2)c1 [Example 51h]       IC50               < 10 nM
1  C[C@H](Oc1cccc(-c2cccc(-n3ncc(C(=O)O)c3[C@@H]3C[C@H]3c3cn(C4CCN(C(=O)OC(C)(C)C)CC4)nn3)c2)c1)C1CCCCC1 (racemic)       IC50        100 to 1000 nM
2  CCC[C@@H]1CCCCN1C(=O)c1cccc(-c2cccc(-n3ncc(C(=O)O)c3C3CC3c3cn(C)nn3)c2)c1F (stereo partly drawn)       IC50               < 10 nM
3  CCC[C@@H]1CCCCN1C(=O)c1cccc(-c2cc(C)cc(-n3ncc(C(=O)O)c3C3CC3c3cn(C)nn3)c2)c1 (stereo partly drawn)       IC50               < 10 nM
4  CO[C@H]1CC[C@H](COc2cccc(-c3cccc(-n4ncc(C(=O)O)c4[C@H]4C[C@@H]4c4cn(C)nn4)c3)c2)CC1 (racemic)       IC50          10 to 100 nM

Incoming: Requested read-out IC50, target or system full length Keap1 protein / full length NRF2 protein (Homo sapiens, UniProt Q14145), entry CC(Oc1cccc(-c2cccc(-n3ncc(C(=O)O)c3[C@H]3C[C@@H]3c3cn(C)nn3)c2)c1)[C@H]1CC[C@H](C(F)(F)F)CC1 (mixture of isomers)
Outgoing: 10 to 100 nM

Incoming: Requested read-out IC50, target or system full length Keap1 protein / full length NRF2 protein (Homo sapiens, UniProt Q14145), entry CC(Oc1cccc(-c2cccc(-n3ncc(C(=O)O)c3[C@H]3C[C@@H]3c3cn(C)nn3)c2)c1)C1CCCCC1 (single isomer, unassigned) [Example 191]
Outgoing: 100 to 1000 nM

Incoming: Requested read-out IC50, target or system full length Keap1 protein / full length NRF2 protein (Homo sapiens, UniProt Q14145), entry CC(=O)OCOC(=O)c1cnn(-c2cccc(-c3cccc(O[C@@H](C)C4CCCCC4)c3)c2)c1[C@@H]1C[C@H]1c1cn(C)nn1
Outgoing: 10 to 100 nM

* * *

# subject of test: Keap1 Kelch domain (321-609) / TAMRA-labeled 16mer NRF2 peptide (ETGE motif) (Homo sapiens)
# Construct: the Kelch domain (321-609) of Keap1 is used
# test description: NRF2-Keap1 FP Assay (Keap1 Kelch fluorescence polarization)
# condition description: 20 nM Keap1 (321-609), 8 nM Tamra labeled peptide
# From the text: One model for the NRF2-Keap1 interaction is through two binding sites in the Neh2 domain on NRF2. The two sites are referred to as the DLG binding motif (latch domain, uM affinity) and the ETGE binding motif (hinge domain, nM affinity). […] In the Keap1 Kelch fluorescence polarization (FP) assay, a TAMRA-labeled 16mer peptide (AFFAQLQLDEETGEFL) containing the ETGE motif of NRF2 and the Kelch domain (321-609) of Keap1 is used. […]
Overview of recorded IC50 for various compounds

                                   compound  observed_measurement
0  C[C@H](Oc1cccc(-c2cccc(-n3ncc(C(=O)O)c3[C@@H]3C[C@H]3c3cn(CCO)nn3)c2)c1)C1CCCCC1 (racemic)          10 to 100 nM
1  CC(Oc1cccc(-c2cccc(-n3ncc(C(=O)O)c3[C@@H]3C[C@H]3c3cn(C)nn3)n2)c1)C1CCCCC1 (relative stereo)          10 to 100 nM

Consider now this further compound.
Incoming: Consider the compound Cn1cc(C2CC2c2c(C(=O)O)cnn2-c2cccc(-c3cccc(OCC4CCCCO4)c3)c2)nn1 (stereo not drawn) and give its measured IC50.
Outgoing: 10 to 100 nM

* * *

# subject of test: Keap1 Kelch domain (321-609) / TAMRA-labeled 16mer NRF2 peptide (ETGE motif) (Homo sapiens, UniProt Q14145)
# Construct: the Kelch domain (321-609) of Keap1 is used
# Sequence (Q14145 321-609): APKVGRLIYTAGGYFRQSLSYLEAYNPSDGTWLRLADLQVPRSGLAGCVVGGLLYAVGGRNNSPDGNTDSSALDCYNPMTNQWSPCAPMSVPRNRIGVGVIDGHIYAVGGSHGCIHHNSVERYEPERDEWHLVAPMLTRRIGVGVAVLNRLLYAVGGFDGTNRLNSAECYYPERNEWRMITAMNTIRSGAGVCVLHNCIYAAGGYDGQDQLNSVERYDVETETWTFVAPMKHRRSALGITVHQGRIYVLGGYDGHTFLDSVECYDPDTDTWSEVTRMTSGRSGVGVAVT
# test description: NRF2-Keap1 FP Assay (Keap1 Kelch fluorescence polarization)
# condition description: 20 nM Keap1 (321-609), 8 nM Tamra labeled peptide
parameter: IC50

Reference set, count: 2
In [3]: df
Out[3]:
                                   compound  observed_measurement
0  CC(=O)N[C@@H]1CC[C@H](c2c(C(=O)O)cnn2-c2cccc(-c3cccc(OC(C)C)c3F)c2)C1 (racemic)      1000 to 10000 nM
1  Cn1cc([C@@H]2C[C@H]2c2c(C(=O)O)cnn2-c2cccc(-c3cccc(/C=C/C4CCCCC4)c3)c2)nn1 (racemic)        100 to 1000 nM

Consider now this further compound.
Incoming: Consider the compound CCC1Cc2ccccc2CN(Cc2cccc(-c3cccc(-n4ncc(C(=O)O)c4[C@@H]4C[C@H]4c4cn(C)nn4)c3)c2)C1 (relative stereo) and give its measured IC50.
Outgoing: 10 to 100 nM

* * *

# subject of test: Keap1 Kelch domain (321-609) / TAMRA-labeled 16mer NRF2 peptide (ETGE motif) (Homo sapiens, UniProt Q14145)
# Construct: the Kelch domain (321-609) of Keap1 is used
# test description: NRF2-Keap1 FP Assay (Keap1 Kelch fluorescence polarization)
# condition description: 20 nM Keap1 (321-609), 8 nM Tamra labeled peptide
parameter: IC50

Reference set, count: 5
In [3]: df
Out[3]:
                                   molecule  observed_measurement
0  CCC[C@@H]1CO[C@@H](C)CN1C(=O)c1cccc(-c2cccc(-n3ncc(C(=O)O)c3C3CC3)c2)c1F          10 to 100 nM
1  CC(Oc1cccc(-c2cccc(-n3ncc(C(=O)O)c3C3CC3c3cn(C)nn3)c2)c1)C1CC1 (centres unmarked)          10 to 100 nM
2  Cn1cc(C2CC2c2c(C(=O)O)cnn2-c2cccc(-c3cccc(C(=O)CC4CCCCC4)c3)c2)nn1 (centres unmarked)          10 to 100 nM
3  Cn1cc([C@@H]2C[C@H]2c2c(C(=O)O)cnn2-c2cccc(-c3cccc(OCC4CCCCC4C(F)(F)F)c3)c2)nn1 (mixture of isomers)          10 to 100 nM
4  CCC(Oc1cccc(-c2cccc(-n3ncc(C(=O)O)c3[C@H]3C[C@@H]3c3cn(C)nn3)c2)c1)C1CCCCC1 (mixture of isomers)          10 to 100 nM

Incoming: Consider the molecule CC(Oc1cccc(-c2cccc(-n3ncc(C(=O)O)c3C3CC3c3cn(C)nn3)c2)c1)C1CCCCC1 (centres unmarked) and give its measured IC50.
Outgoing: 10 to 100 nM

Incoming: Consider the molecule Cn1cc([C@@H]2C[C@H]2c2c(C(=O)O)cnn2-c2cccc(-c3cccc(CN4Cc5ccccc5CC(C)(C)C4)c3)c2)nn1 (racemic) and give its measured IC50.
Outgoing: 100 to 1000 nM

Incoming: Consider the molecule Cn1cc(C2CC2c2c(C(=O)O)cnn2-c2cccc(-c3cccc(OCc4ccccc4)c3)c2)nn1 (centres unmarked) and give its measured IC50.
Outgoing: 100 to 1000 nM

Recorded values, source patent US10364256B2.
